The reported numbers originate from patent US7405205B2.

System: HepG2 hepatocellular carcinoma
Test: Relative colony forming efficiency after antisense treatment (Table 13, FIG. 12)
Type: cell-based, human
Details: 0.2 μM antisense oligodeoxyribonucleotide phosphorothioate; HepG2 cells; averages of 2-8 determinations
Strand notation (5' to 3'): a small letter for the sugar, then the base; units joined by * are phosphorothioate-linked, units joined directly phosphodiester-linked; [ ] holds rarer units or linkages, { } end groups; capitals alone tell only the bases. d = 2'-deoxy (DNA)
Respond with y for Reduced relative colony forming efficiency, expressed as % inhibition, HepG2 values of 60% and above, n for values below.

Query block: Reported Reduced relative colony forming efficiency, expressed as % inhibition, HepG2 reaches at least 60% for CCCCTTCAGCGGCG (dC*dC*dC*dC*dT*dT*dC*dA*dG*dC*dG*dG*dC*dG) [AS-II-253-14] ?
Result block: n

Query block: Reported Reduced relative colony forming efficiency, expressed as % inhibition, HepG2 reaches at least 60% for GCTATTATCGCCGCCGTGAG (DNA, all phosphorothioate, methylation of C not given here) [AS-II-1773-20] ?
Result block: n

Query block: Reported Reduced relative colony forming efficiency, expressed as % inhibition, HepG2 reaches at least 60% for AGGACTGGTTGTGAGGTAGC (DNA, all phosphorothioate, methylation of C not given here) [AS-II-1499-20] ?
Result block: y

Query block: Reported Reduced relative colony forming efficiency, expressed as % inhibition, HepG2 reaches at least 60% for ATCGCCGCCGTG (DNA, all phosphorothioate, methylation of C not given here) [AS-II-1775-12] ?
Result block: n

Query block: Reported Reduced relative colony forming efficiency, expressed as % inhibition, HepG2 reaches at least 60% for TTAGAAGTCAGCATCCAAGG (DNA, all phosphorothioate, methylation of C not given here) [AS-II-1345-20] ?
Result block: y

Query block: Reported Reduced relative colony forming efficiency, expressed as % inhibition, HepG2 reaches at least 60% for GsCGsAAGsCAGsAGCsGAGsCAGCsC (antisense dG*dCdG*dAdAdG*dCdAdG*dAdGdC*dGdAdG*dCdAdGdC*dC) [AS-II-163-20] ?
Result block: n

Query block: Reported Reduced relative colony forming efficiency, expressed as % inhibition, HepG2 reaches at least 60% for TCAGCATCCAAGGTAAAAGA (DNA, all phosphorothioate, methylation of C not given here) [AS-II-1338-20] ?
Result block: y

Query block: Reported Reduced relative colony forming efficiency, expressed as % inhibition, HepG2 reaches at least 60% for AAGCGGCGGGGGTTTTCTCT (dA*dA*dG*dC*dG*dG*dC*dG*dG*dG*dG*dG*dT*dT*dT*dT*dC*dT*dC*dT; antisense) [AS-II-414-20] ?
Result block: n
